meta.source: ChEMBL document CHEMBL4261556

Tested on: A549
Test: Antiproliferative activity against human A549 cells after 72 hrs by SRB assay
Type: functional, cell-based
Conditions: Homo sapiens, A549, 72 h
pIC50 values for the molecules below.
In textbook form, pIC50 equals minus log to base ten of the concentration in mol/L.

Known results for molecules:
1) COc1cc(/C=C2\C(=O)OC\C2=C\c2ccc3c(c2)OCO3)cc(OC)c1OC :: 4.45
2) COc1cc(/C=C2\C(=O)OCC2Cc2ccc3c(c2)OCO3)cc(OC(=O)CN(C)C)c1OC (stereo not given) :: 5.30
3) COc1cc(/C=C2\C(=O)OCC2Cc2ccc3c(c2)OCO3)cc(OC)c1OC(=O)[C@@H](N)Cc1ccccc1 (stereo not given in full) :: 5.22

Bench note: what pIC50 did COc1cc(/C=C2\C(=O)OC\C2=C\c2ccc3c(c2)OCO3)cc(O)c1OC show?
4.51
